Origin of the recorded values: paper PMC9005681

- System: cloned human or rodent CNS receptors, channels, and transporters (PDSP panel)
- experiment.notes: PDSP GPCR panel primary binding assays at 10 μM
- details: H3; primary assay, replicate 3
measured.attribute: Inhibition 3 (%)

> print(dat)
                                   molecule                             system.tested  value.measured
1  CCC(=O)N1CCC(NC(=O)Nc2ccc(OC(F)(F)F)cc2)CC1 [UNC10302681A, TPPU]  cloned human or rodent CNS receptors, channels, and transporters (PDSP panel)           12.17
2  O=C(NC1CC1)C(=O)C(Cc1ccccc1)NC(=O)[C@H]1CCC(=O)N1Cc1ccccc1 (some centres unmarked) [UNC10302676A, ABT-957 (Alicapistat)]  cloned human or rodent CNS receptors, channels, and transporters (PDSP panel)          -42.04
3  O=c1oc2ccccc2cc1-c1cn2cc(Cc3ccc(F)cc3)sc2n1 [UNC10302680A, iMDK]  cloned human or rodent CNS receptors, channels, and transporters (PDSP panel)           47.14
4  CC(=O)N1CCC(NC(=O)NC23CC4CC(CC(C4)C2)C3)CC1 [UNC10302683A, AR9281]  cloned human or rodent CNS receptors, channels, and transporters (PDSP panel)           12.17
5  CNc1nc(C)nc(N[C@H]2CCC[C@@H](C(=O)NCc3ccc(C#N)cc3C(F)(F)F)C2)n1 [UNC10302679A, GSK2256294A]  cloned human or rodent CNS receptors, channels, and transporters (PDSP panel)           19.16
